tested on: Fer (mouse); experiment: phosphorylation enrichment, bacterial display (enrichment ratio); higher = better substrate or ligand; peptides without Tyr show the background;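 also: 11-residue human phosphosite peptides and single-mutation variants displayed on the E. coli surface, counted by deep sequencing, each peptide's frequency after selection divided by its frequency in the unselected input library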;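 also: frequency after pTyr selection over input frequency; kinase dosed for 20-30% of maximal phosphorylation in three min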
measured-property: phosphorylation enrichment
One number for each entry.

Reference set, count: 5
- sequence-chain: "AHAGEYGEEAL [HBA1_Y25_A27E]"
  measurement: 0.615
- sequence-chain: "MDDPRYGMCPL [ZNF100_Y6]"
  measurement: 0.607
- sequence-chain: "LKGQVYILGRE [ASS1_Y359]"
  measurement: 0.756
- sequence-chain: "NTPNTYLRVNV [ADD2_Y440]"
  measurement: 0.38
- sequence-chain: "KMLEKYKERLN [TLK2_Y259]"
  measurement: 0.444

# per-item lookup of phosphorylation enrichment; items listed below
1. VNCHQYDGLVE [ATP2A2_Y407]
2. GCRSKHVGLWG [KCNQ1_Y184_Y184H]
3. NTTIHYNFMCN [TP53_Y234_C229N_YF]
4. HLWRIYFDITD [MMP27_Y307_YF]
5. IQRSLYDRPAS [PDGFRA_Y762]

1. 0.598
2. 0.325
3. 0.557
4. 0.531
5. 0.988

# per-item lookup of phosphorylation enrichment; items listed below
1. VMVCAYLLHRG [PTEN_Y138_I135V]
2. RRYLYYYSYLL [PTEN_Y177_V175L]
3. MSGDVYSTDYY [NTRK2_Y702_R699G]

[0.558, 1.24, 0.863]
